Origin of values: ChEMBL document CHEMBL1154397

- System: Liver microsomes
- protocolDescription: Metabolic stability in human liver microsomes assessed as clearance
- Format: ADME, Microsome
Please use met whenever microsomal CLint is not below 30 µL/min/mg, and not met whenever it is.

Below, 5 compounds whose answers are already recorded.
CC(=O)N[C@H]1CC[C@H](c2n[nH]cc2-c2ccnc(NC3CCCC3)n2)CC1    not met
Clc1ccc(-c2n[nH]cc2-c2ccnc(NC3CCCC3)n2)cc1    met
CC(C)Nc1nccc(-c2c[nH]nc2C2CCOCC2)n1    not met
C[C@H](CC(=O)O)Nc1nccc(-c2c[nH]nc2-c2ccc(Cl)cc2)n1    not met
CC(C)Nc1nccc(-c2cn[nH]c2C2CCN(S(C)(=O)=O)CC2)n1    not met

-- ask Assess whether reported microsomal CLint for c1cc(-c2cn[nH]c2C2CCCOC2)nc(NC2CCCC2)n1 (stereo unspecified) sits at 30 µL/min/mg or higher.
-- reply met

-- ask Hello, I need to know if CC(C)Nc1nccc(-c2c[nH]nc2C2CCCOC2)n1 (stereo unspecified) has measured microsomal CLint not below 30 µL/min/mg. Thanks!
-- reply met

-- ask Is reported microsomal CLint greater than or equal to 30 µL/min/mg here: O[C@H]1CC[C@H](c2[nH]ncc2-c2ccnc(NC3CCCC3)n2)CC1
-- reply not met

-- ask Given the entry CC(C)Nc1nccc(-c2cn[nH]c2C2CCCCO2)n1 (stereo unspecified) , answer whether its microsomal CLint meets or surpasses 30 µL/min/mg.
-- reply not met

-- ask Check this compound for microsomal CLint at or above 30 µL/min/mg: CC(C)Nc1nccc(-c2cn[nH]c2C2CCCNC2)n1 (stereo unspecified)
-- reply not met

-- ask Reported microsomal CLint reaches at least 30 µL/min/mg for Cc1ccc(-c2n[nH]cc2-c2ccnc(NC3CCN(C)CC3)n2)cn1 ?
-- reply met

###

- protocolDescription: Metabolic stability in rat liver microsomes assessed as clearance
- Assay type: ADME, Microsome
Measured microsomal CLint, listed per entry.
Could you kindly put the unit after your number?

CC(C)Nc1nccc(-c2c[nH]nc2C2CCCOC2)n1 (configuration not stated)    18 µL/min/mg

Now for a further molecule.
CC(C)Nc1nccc(-c2cn[nH]c2C2CCN(S(C)(=O)=O)CC2)n1 has a reported microsomal CLint of 52 µL/min/mg

###

- assayedSystem: Inhibitor of nuclear factor kappa-B kinase subunit beta (Homo sapiens)
- Sequence (O14920 whole entry): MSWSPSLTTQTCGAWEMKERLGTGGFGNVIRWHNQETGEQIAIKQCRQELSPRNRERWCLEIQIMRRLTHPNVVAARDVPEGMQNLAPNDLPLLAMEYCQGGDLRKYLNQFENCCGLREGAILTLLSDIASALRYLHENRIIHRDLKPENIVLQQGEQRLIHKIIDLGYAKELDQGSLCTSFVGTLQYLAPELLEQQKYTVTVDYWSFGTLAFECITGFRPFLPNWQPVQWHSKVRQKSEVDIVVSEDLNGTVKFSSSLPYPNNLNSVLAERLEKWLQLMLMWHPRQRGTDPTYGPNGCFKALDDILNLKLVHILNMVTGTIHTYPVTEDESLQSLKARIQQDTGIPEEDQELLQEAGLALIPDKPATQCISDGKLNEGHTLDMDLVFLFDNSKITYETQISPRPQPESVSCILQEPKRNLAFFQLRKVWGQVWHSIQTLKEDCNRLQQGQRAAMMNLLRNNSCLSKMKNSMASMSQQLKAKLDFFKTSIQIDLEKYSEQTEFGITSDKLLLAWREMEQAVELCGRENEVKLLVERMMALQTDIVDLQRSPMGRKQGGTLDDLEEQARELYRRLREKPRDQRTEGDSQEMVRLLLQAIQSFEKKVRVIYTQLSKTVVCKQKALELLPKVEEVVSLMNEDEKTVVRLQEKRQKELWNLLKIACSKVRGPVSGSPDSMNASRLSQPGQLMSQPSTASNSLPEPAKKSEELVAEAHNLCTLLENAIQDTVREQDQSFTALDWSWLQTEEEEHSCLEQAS
- protocolDescription: Inhibition of IKKb
experimentalEndpoint: pIC50
pIC50 field: float, defined as -log10 of concentration (mol/L).

Known value: Inhibitor of nuclear factor kappa-B kinase subunit beta (Homo sapiens) pIC50 of the compound O[C@H]1CC[C@H](c2[nH]ncc2-c2ccnc(NC3CCCC3)n2)CC1 equals 4.89
